The measurements presented in this section are drawn from BigSolDB 2.1.

condition_label: in ethyl acetate, 323.15 K
measured_quantity: solubility (mole fraction)

Q) Dear colleague, I am looking for the recorded solubility (mole fraction) of the following molecule: "O=Cc1cc(Br)c(O)c(Br)c1"
A) 0.0194

----------
condition_label: in n-butanol, 293.15 K
measured_quantity: solubility (mole fraction)
One number for each entry.

Q) Any idea what its solubility (mole fraction) is? The molecule is "O=Cc1cc(Br)c(O)c(Br)c1"
A) 0.00624

----------
condition_label: in ethyl acetate, 288.15 K
measured_quantity: solubility (mole fraction)
Answers are plain numbers.

Q) Which solubility (mole fraction) value belongs to "O=Cc1cc(Br)c(O)c(Br)c1" ?
A) 0.00729
